- EXPERIMENT DESCRIPTION: Pharmacokinetics of PTX and FM04 after oral co-administration
- Assay type: in vivo, Balb/c mice
- MEASUREMENT CONTEXT: female, Balb/c, mouse, plasma, po, mice, oral; FM04 45 mg/kg + PTX 70 mg/kg; read-out: FM04 Tmax (converted)
MEASURED PROPERTY: Tmax (h)
// note: answer is a bare numeric in h

Prompt: Which measured Tmax value corresponds to O=c1cc(-c2ccc(OCCOCCNCc3ccccc3)cc2)oc2ccccc12 ?
Completion: 1

----------
- ASSAYED TARGET: BCRP (Homo sapiens)
- Sequence (Q9UNQ0 whole entry): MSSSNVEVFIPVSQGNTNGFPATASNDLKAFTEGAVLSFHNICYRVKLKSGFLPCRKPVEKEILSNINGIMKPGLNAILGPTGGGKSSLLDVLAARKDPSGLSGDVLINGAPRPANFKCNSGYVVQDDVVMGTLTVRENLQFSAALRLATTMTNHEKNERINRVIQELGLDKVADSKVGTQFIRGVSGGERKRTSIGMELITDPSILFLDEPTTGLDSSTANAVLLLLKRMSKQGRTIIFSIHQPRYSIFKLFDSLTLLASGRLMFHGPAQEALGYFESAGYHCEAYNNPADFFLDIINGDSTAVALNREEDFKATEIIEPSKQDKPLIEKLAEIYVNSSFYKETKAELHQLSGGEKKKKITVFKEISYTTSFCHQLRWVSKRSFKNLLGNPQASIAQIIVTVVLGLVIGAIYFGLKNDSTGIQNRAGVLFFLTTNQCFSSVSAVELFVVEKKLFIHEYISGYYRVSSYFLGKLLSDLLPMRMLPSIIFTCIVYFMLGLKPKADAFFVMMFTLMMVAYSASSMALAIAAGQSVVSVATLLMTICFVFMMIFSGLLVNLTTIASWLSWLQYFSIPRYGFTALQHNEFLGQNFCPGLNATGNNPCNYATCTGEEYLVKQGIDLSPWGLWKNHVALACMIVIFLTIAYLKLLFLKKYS
- EXPERIMENT DESCRIPTION: BCRP-modulating activity in HEK293/R2 cells (MTS)
- MEASUREMENT CONTEXT: no modulator; read-out: IC50 of Topotecan in HEK293/R2, DMSO
MEASURED PROPERTY: IC50 (nM)
// note: answer is a bare numeric in nM

Prompt: Which measured IC50 value corresponds to CC[C@@]1(O)C(=O)OCc2c1cc1n(c2=O)Cc2cc3c(CN(C)C)c(O)ccc3nc2-1 [Topotecan, topotecan] ?
Completion: 225

----------
- ASSAYED TARGET: UniProt:P33527
- Sequence (P33527 whole entry): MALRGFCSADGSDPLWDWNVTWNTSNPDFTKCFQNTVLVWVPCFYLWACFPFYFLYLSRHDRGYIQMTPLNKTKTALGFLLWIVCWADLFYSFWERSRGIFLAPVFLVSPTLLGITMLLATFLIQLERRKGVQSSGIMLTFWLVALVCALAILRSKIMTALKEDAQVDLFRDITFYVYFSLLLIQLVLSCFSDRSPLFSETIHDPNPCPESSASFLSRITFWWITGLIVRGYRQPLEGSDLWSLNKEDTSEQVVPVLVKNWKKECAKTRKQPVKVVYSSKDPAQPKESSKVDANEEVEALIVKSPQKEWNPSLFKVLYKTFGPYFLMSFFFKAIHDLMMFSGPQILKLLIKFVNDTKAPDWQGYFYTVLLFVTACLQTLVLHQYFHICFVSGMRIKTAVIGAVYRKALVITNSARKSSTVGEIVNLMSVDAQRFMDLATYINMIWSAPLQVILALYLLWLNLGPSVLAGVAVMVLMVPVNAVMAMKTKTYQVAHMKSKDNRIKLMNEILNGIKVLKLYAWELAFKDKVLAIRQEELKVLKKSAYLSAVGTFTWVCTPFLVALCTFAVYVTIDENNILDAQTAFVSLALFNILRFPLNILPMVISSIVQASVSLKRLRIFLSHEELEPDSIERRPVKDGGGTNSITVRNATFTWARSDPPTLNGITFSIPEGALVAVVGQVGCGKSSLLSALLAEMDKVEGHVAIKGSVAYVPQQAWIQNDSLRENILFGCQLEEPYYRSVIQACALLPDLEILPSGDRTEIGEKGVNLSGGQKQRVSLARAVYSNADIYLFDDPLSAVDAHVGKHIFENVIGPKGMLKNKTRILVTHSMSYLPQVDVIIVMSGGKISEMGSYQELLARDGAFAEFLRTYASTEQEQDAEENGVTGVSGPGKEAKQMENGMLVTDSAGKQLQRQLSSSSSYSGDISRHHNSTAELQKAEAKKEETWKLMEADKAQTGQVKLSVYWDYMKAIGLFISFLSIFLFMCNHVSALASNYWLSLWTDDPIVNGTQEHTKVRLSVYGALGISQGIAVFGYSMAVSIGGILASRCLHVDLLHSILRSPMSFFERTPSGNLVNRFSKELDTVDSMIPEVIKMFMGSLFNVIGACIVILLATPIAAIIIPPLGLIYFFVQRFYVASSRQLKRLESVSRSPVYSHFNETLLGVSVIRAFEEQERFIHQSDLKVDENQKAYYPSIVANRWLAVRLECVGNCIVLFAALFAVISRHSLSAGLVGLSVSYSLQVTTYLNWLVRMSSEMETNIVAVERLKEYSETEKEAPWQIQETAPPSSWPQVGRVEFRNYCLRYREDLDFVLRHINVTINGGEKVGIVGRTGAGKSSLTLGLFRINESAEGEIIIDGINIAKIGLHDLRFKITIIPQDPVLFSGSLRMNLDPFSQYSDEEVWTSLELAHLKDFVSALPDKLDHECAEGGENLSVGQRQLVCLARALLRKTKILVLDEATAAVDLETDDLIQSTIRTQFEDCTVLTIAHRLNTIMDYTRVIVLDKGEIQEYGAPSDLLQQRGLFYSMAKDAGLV
- EXPERIMENT DESCRIPTION: MRP1-modulating activity in 2008/MRP1 cells (MTS)
- MEASUREMENT CONTEXT: no modulator; read-out: IC50 of DOX in 2008/MRP1, DMSO
MEASURED PROPERTY: pIC50
Convention used: pIC50 is expressed as -log10 of the molar concentration.

Prompt: Which measured pIC50 value corresponds to COc1cccc2c1C(=O)c1c(O)c3c(c(O)c1C2=O)C[C@@](O)(C(=O)CO)C[C@@H]3O[C@H]1C[C@H](N)[C@H](O)[C@H](C)O1 ?
Completion: 6.21

----------
- EXPERIMENT DESCRIPTION: Cytotoxicity assay (MTS, 3 days), L929
- Format: cell-based
- MEASUREMENT CONTEXT: L929 fibroblast cells; mouse fibroblast cell line
MEASURED PROPERTY: IC50 at 3 days (µM)
// note: answer is a bare numeric in µM

Prompt: Which measured IC50 at 3 days value corresponds to O=c1cc(-c2ccc(OCCOCCNCc3ccccc3)cc2)oc2ccccc12 ?
Completion: 33

----------
- EXPERIMENT DESCRIPTION: Pharmacokinetics of PTX and FM04 after oral co-administration
- Format: in vivo, Balb/c mice
- MEASUREMENT CONTEXT: female, Balb/c, mouse, plasma, po, 70 mg/kg, mice, oral; PTX 70 mg/kg, FM04 0 mg/kg; read-out: PTX Cmax
MEASURED PROPERTY: Cmax

Prompt: Which measured Cmax value corresponds to CC(=O)O[C@H]1C(=O)[C@@]2(C)[C@H]([C@H](OC(=O)c3ccccc3)[C@]3(O)C[C@H](OC(=O)[C@H](O)[C@@H](NC(=O)c4ccccc4)c4ccccc4)C(C)=C1C3(C)C)[C@]1(OC(C)=O)CO[C@@H]1C[C@@H]2O ?
Completion: 186 ng/mL

----------
- EXPERIMENT DESCRIPTION: Pharmacokinetics of PTX and FM04 after oral co-administration
- Format: in vivo, Balb/c mice
- MEASUREMENT CONTEXT: female, Balb/c, mouse, plasma, po, 100 mg/kg, mice, oral; FM04 100 mg/kg, PTX 0 mg/kg; read-out: FM04 AUC(0-t) (converted)
MEASURED PROPERTY: AUC(0-t) (ng·h/mL)
// note: answer is a bare numeric in ng·h/mL

Prompt: Which measured AUC(0-t) value corresponds to O=c1cc(-c2ccc(OCCOCCNCc3ccccc3)cc2)oc2ccccc12 ?
Completion: 1820

----------
- EXPERIMENT DESCRIPTION: In vivo monitoring of FD18 and its metabolites in plasma after I.V. FD18
- Design: species or system SD rats
- MEASUREMENT CONTEXT: Sprague-Dawley, rat, iv, after FD18 5 mg/kg I.V.
MEASURED PROPERTY: Cmax

Prompt: Which measured Cmax value corresponds to O=c1cc(-c2ccc(OCCOCCNCCOCCOc3ccc(-c4cc(=O)c5ccccc5o4)cc3)cc2)oc2ccccc12 [14a] ?
Completion: 18 ng/mL

Prompt: Which measured Cmax value corresponds to O=c1cc(-c2ccc(OCCOCCO)cc2)oc2ccccc12 ?
Completion: 21 ng/mL

Prompt: Which measured Cmax value corresponds to O=c1cc(-c2ccc(OCCOCCNCc3ccccc3)cc2)oc2ccccc12 ?
Completion: 11 ng/mL

----------
- EXPERIMENT DESCRIPTION: Pharmacokinetics of PTX and FM04 after oral co-administration
- Type: in vivo, Balb/c mice
- MEASUREMENT CONTEXT: female, Balb/c, mouse, plasma, po, mice, oral; PTX 70 mg/kg + FM04 22 mg/kg; read-out: PTX AUC(0-t) (converted)
MEASURED PROPERTY: AUC(0-t) (ng·h/mL)
// note: answer is a bare numeric in ng·h/mL

Prompt: Which measured AUC(0-t) value corresponds to CC(=O)O[C@H]1C(=O)[C@@]2(C)[C@H]([C@H](OC(=O)c3ccccc3)[C@]3(O)C[C@H](OC(=O)[C@H](O)[C@@H](NC(=O)c4ccccc4)c4ccccc4)C(C)=C1C3(C)C)[C@]1(OC(C)=O)CO[C@@H]1C[C@@H]2O ?
Completion: 15500
